Target of assay: SaSiaT (Staphylococcus aureus, UniProt A0A0H2XJ46)
Sequence (A0A0H2XJ46 entry or part of it): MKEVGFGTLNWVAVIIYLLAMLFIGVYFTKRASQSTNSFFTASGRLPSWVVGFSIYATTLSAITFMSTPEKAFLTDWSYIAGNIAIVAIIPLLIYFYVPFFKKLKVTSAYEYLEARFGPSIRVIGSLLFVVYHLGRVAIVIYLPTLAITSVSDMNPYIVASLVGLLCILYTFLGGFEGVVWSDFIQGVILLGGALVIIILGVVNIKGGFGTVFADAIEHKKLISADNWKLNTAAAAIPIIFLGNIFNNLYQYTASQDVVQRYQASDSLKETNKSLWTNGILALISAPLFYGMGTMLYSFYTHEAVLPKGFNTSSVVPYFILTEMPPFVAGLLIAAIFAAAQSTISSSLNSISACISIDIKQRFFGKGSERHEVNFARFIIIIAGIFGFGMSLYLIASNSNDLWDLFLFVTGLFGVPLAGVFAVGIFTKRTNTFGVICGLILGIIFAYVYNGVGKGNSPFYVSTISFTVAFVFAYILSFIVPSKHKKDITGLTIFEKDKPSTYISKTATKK
Method notes: Isothermal titration calorimetry, SaSiaT
Assay type: binding
Run conditions: ITC
Readout name: SaSiaT ΔH°
Remember to put the unit after the number in your answer.

Inquiry: Request the reported SaSiaT ΔH° associated with CC(=O)NC1C(OCc2cc(F)cc(F)c2)CC(O)(C(=O)O)OC1C(O)C(O)CO (stereo not shown)
Reply text: 9.15 kcal/mol

Inquiry: I have this molecule here, CC(=O)NC1C(OCc2ccccc2)CC(O)(C(=O)O)OC1C(O)C(O)CO (stereo not shown) , and I need its recorded SaSiaT ΔH°.
Reply text: 9.08 kcal/mol

Inquiry: Quick check: SaSiaT ΔH° of CC(=O)N[C@H]1[C@H]([C@H](O)[C@H](O)CO)OC(O)(C(=O)O)C[C@@H]1O (stereo partly shown) [Neu5Ac, 5-N-acetyl neuraminic acid, reference compound] ?
Reply text: 9.37 kcal/mol

Inquiry: Could you share which SaSiaT ΔH° value was measured for CC(=O)NC1C(OCc2cc(Br)cc(Br)c2)CC(O)(C(=O)O)OC1C(O)C(O)CO (stereo not shown) ?
Reply text: 6.57 kcal/mol
